- method: inhibition of 3D7 malaria parasite growth – strain 3D7 (AID 2306);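 also: 0% = DMSO wells and 100% = chloroquine plus artemisinin control wells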
- condition-info: P. falciparum 3D7 erythrocytic growth, LDH absorbance, 72 h; at 2 µM; stronger effect = higher value
readout: growth inhibition (%)
Answer format: numeric, % implied, no suffix.

// returns reported growth inhibition for input `COc1cccc(-c2ccc(C(=O)NC3CCN(Cc4ccc(N(C)C)cc4)CC3)s2)c1`
81

And `O=C(Nc1cccc(CN2CCCN(CCc3ccccc3)CC2)c1)c1cc2ccccc2s1` ?
93

Also `Cc1ccc(NC(=O)c2ccc3nccnc3c2)cc1OC1CCN(Cc2ccc(F)cc2)CC1` ?
87

---

- method: antimalarial activity against Dd2 strain (AID 2302);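 also: 0% = DMSO untreated growth and 100% = chloroquine plus artemisinin killed control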
- condition-info: P. falciparum Dd2 in RBCs, LDH growth readout, 72 h; at 2 µM; stronger effect = higher value
For each of the compounds below, state its growth inhibition.
Write the value in % as a bare number.

Request the reported growth inhibition associated with `CCOC(=O)c1c(C)n(-c2ccccc2)c2ccc(OC(=O)c3ccc(S(=O)(=O)N(CC)CC)cc3)cc12`
63

Same question, CCCCCCNC(=O)C1Cc2c([nH]c3ccccc23)C2(CCN(CCc3ccccc3)CC2)N1 (stereo not drawn) this time
34

Can you check COc1cc2nc(NCC3CCCO3)n3nc(-c4ccccc4)nc3c2cc1OC (stereo not drawn) next?
97

Param item: `CCOc1c(Br)cc(Br)cc1CNCCCCNc1nc2ccccc2[nH]1`
37

Note, next up: `c1ccc(-n2ncc(CNCc3ccc(-c4cccc(-c5nc6ccccc6[nH]5)c4)cc3)n2)cc1`
9

Note, next up: `CCc1cn2c3c(cc(C(=O)N[C@@H](Cc4ccccc4)[C@H](O)CNC4CCOCC4)cc13)N(C(C)C)S(=O)(=O)CC2`
99

Next compound: `CC(=O)Nc1ccc(C(=O)Nc2ccc(-c3cccc(-c4nc5ccc(C(F)(F)F)cc5[nH]4)c3)cc2)cn1`
98

Try the compound `CS(=O)(=O)NCCCNCc1cccc(-c2ccc(-c3nc4ccc(C(F)(F)F)cc4[nH]3)s2)c1`
51

Could you do the same for `COc1cc2nc(NCCc3cccc(Cl)c3)nc(NCc3ccccc3)c2cc1OC` , please?
101

One more compound: `O=C(/C=C/c1ccc(Cl)c(Cl)c1)NCCCCN1CCCN(C(=O)Nc2ccc(F)c(Cl)c2)CC1`
2

Also, `CC1(C)CCNc2cc(NC(=O)c3ccc(-c4ncccc4C(F)(F)F)cc3)ccc21` please.
86

Param item: `CS(=O)(=O)CCNCc1cccc(-c2cc3c(Nc4ccc5c(cnn5Cc5ccccc5)c4)ncnc3s2)c1`
101

Repeat with `CC(C)NCc1cc(Nc2ccnc3cc(Cl)ccc23)ccc1O`
100

Next up: `CCn1cc(-c2nc(-c3cc(OC)cc(OC)c3)no2)c(=O)c2ccccc21`
77

What do you have for Cc1cc2c(cc1C(F)(F)F)N(C(=O)Nc1ccc(C(=O)NC3CCN(Cc4ccccc4)C3)cc1)CC2 (stereo not drawn) ?
48

# iterate: `CCN(CC)CCN(Cc1ccc(-c2ccc(C(F)(F)F)cc2)cc1)C(=O)Cn1c(CCc2cccc(F)c2F)nc(=O)c2sccc21`
70

Follow-up item: `O=C(NC1CCCCC1)N(CCCn1ccnc1)Cc1csc(-c2ccc(CNCc3ccccc3)cc2)n1`
48

Again, but for `Cc1cc(N2C(N)=NC(N)=NC2(C)C)ccc1Cl`
-2

Moving on to the next compound: `COc1cc(NC(=O)CCCN2CCN(c3cccc(Cl)c3Cl)CC2)ccc1N1CCN(C(C)C)CC1`
59

Ok, now `CCOc1ccc(C(=O)Nc2nonc2-c2ccc(OC)c(OC)c2)cc1`
42

Next up: `CC(=O)c1cccc(NC(=O)N2CCCN(CCCCCNC(=O)/C=C/c3ccc(Cl)c(Cl)c3)CC2)c1`
0

Check `COc1ccccc1N1CCN(CCCCNC(=O)c2ccc(NC(=O)c3ccc(C(F)(F)F)cc3)cc2)CC1` too.
37

Also need `COc1cc(Cc2c(C)nc3nc(N)nc(N)c3c2C)c(Br)c(OC)c1OC` , thanks.
-2

---

- method: inhibition of 3D7 malaria parasite growth – strain 3D7 (AID 2306);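 also: 0% = DMSO wells and 100% = chloroquine plus artemisinin control wells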
- condition-info: P. falciparum 3D7 erythrocytic growth, LDH absorbance, 72 h; at 2 µM; stronger effect = higher value
Calls of active or inactive are those of the source. How the calls were made is not given here.
readout: growth inhibition

Which growth inhibition reading was recorded for the compound O=C(/C=C/c1ccc(F)cc1)NC1CCC(CCN2CCc3ccccc3CC2)CC1 (stereo unspecified) ?
91% (active)

Would you mind doing `CC(=O)Nc1nc(C(=O)Nc2cccc(-c3ccc(-c4nc5ccc(F)cc5[nH]4)cc3)c2)cs1` as well?
101% (active)

Continue with CCOc1ccccc1CCNC(C)Cc1ccc(C(=O)Nc2ccc(CC(C)NCCc3cccc(Cl)c3)cc2)cc1 (stereo unspecified)
97% (active)

Please give the result for `COc1ccc2ncc(Cl)c(CCN3CC[C@@H](CNCc4cc5c(cn4)OCS5)C3)c2n1` too.
99% (active)

CCCCCC1c2[nH]c3ccccc3c2CCN1C(=O)OCc1ccccc1 (stereo unspecified) ?
93% (active)

Same question for `Cc1[nH]c(-c2ccc(F)cc2)cc1C(=O)NC1CCN(Cc2ccccc2)CC1` please.
84% (active)

One more compound: `Cc1ccc(N2C(N)=NC(N)=NC2(C)C)cc1Cl`
90% (active)

Moving on to the next compound: `Cc1cccc2[nH]c(-c3ccc(-c4cccc(CNCCc5ccncc5)c4)s3)nc12`
100% (active)

How about this compound: `Cc1cc(N(C)C)nc(Nc2ccc(NC(=O)Nc3ccccc3)cc2)n1`
101% (active)

Consider next the compound `O=C(c1ccc(O)c(-c2cc(Cl)cc(Cl)c2)c1)N1CCCC1` in the same way.
90% (active)

# iterate: `CS(=O)(=O)Nc1cccc(-c2cnc3[nH]cc(-c4ccc(C(=O)O)cc4)c3c2)c1`
98% (active)

---

- method: antimalarial activity against Dd2 strain (AID 2302);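 also: 0% = DMSO untreated growth and 100% = chloroquine plus artemisinin killed control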
- condition-info: P. falciparum Dd2 in RBCs, LDH growth readout, 72 h; at 2 µM; stronger effect = higher value
growth inhibition vs 80%: at or above is Condition met, below is Condition not met.

Form field: growth inhibition at least 80%? Entry: CCCCCCNC(=O)C1Cc2c([nH]c3ccc(C)cc23)C2(CCN(Cc3ccccc3)CC2)N1 (stereo not given)
Condition not met

Same question, `O=C(NCCc1ccccc1)N(Cc1cccc(-c2ccc(CNC3CCCC3)cc2)c1)C1CCN(Cc2ccccc2)CC1` this time
Condition met

Another compound to look at: `O=C(Nc1ccccc1)N(Cc1ccc(-c2ccc(CNCc3ccc4c(c3)OCO4)cc2)cc1)C1CCN(Cc2ccccc2)CC1`
Condition not met

// query: `CN(C)CCCOc1ccc(CN2CC[C@H](NC(=O)c3ccc(Cl)c(Cl)c3)C2)cc1Br`
Condition not met

Same thing, different compound: `COc1ccc2ncc(F)c(CCN3C[C@@H]4CCC[C@]4(CNCc4ccc5c(n4)NC(=O)CS5)C3)c2n1`
Condition not met

Do the same for CCCCCCCN1CC[C@@H](CCC(O)c2ccnc3ccc(OC)cc23)[C@@H](CC)C1 (stereo not given in full) please
Condition met

Next compound up: `CCNc1cc(C)nc(Nc2ccc(NC(=O)c3cccs3)cc2)n1`
Condition not met

Also `Cc1cccc(C)c1CNc1ccnc2cc(Br)ccc12` , if possible.
Condition met

Further, for `COc1ccc2ccccc2c1C=NNc1ccnc2cc(Cl)ccc12` ?
Condition met

What about this compound? `COc1ccc(NC(=O)c2c(NC(=O)c3cccs3)sc3c2CCCC3)cc1`
Condition not met

What would you report for `COc1cc(F)c2ncc(C#N)c(CCN3CCC(NCc4ccc5c(c4)OCCO5)CC3)c2c1` ?
Condition not met

Next compound: `CC(C)C[C@@H](NC(=O)OC(C)(C)C)C(=O)Nc1ccc(Cc2ccc(NC(=O)[C@@H](CC(C)C)NC(=O)OC(C)(C)C)cc2)cc1`
Condition met

Next compound up: `CC(=O)Nc1ccc(CN(Cc2cccc(OC(C)(C)C)c2)Cc2ccc3c(c2)OCCO3)cc1`
Condition met

Field entry: `CN(C)CCCNc1nccc(N(C)c2ccc(NC(=O)Nc3cc(C(F)(F)F)ccc3F)cc2)n1`
Condition not met

---

Please respond with reported inhibition for every item in the list.
- test-target: L-lactate dehydrogenase (Plasmodium falciparum (isolate CDC / Honduras)) (UniProt Q27743)
- Sequence (Q27743 whole entry, looked up): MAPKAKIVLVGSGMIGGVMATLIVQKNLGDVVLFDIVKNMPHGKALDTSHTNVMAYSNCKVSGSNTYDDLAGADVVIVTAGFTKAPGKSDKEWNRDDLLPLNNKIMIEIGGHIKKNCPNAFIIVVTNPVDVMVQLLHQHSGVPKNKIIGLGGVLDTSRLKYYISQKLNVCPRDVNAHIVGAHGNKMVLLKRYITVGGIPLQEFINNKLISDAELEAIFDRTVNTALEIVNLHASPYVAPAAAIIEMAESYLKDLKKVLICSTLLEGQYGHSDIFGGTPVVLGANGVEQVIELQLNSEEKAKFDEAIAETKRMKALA
- method: PfLDH activity inhibition – cell lysate, 3D7 strain, counter-screen for P. falciparum growth inhibition project (AID 2304);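 also: 0% = vehicle and 100% = reference inhibitor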
- condition-info: P. falciparum 3D7 crude extract, LDH APAD/NBT absorbance; at 2 µM; stronger effect = higher value
Give your result in % as a bare value.

Please state recorded inhibition (tested on L-lactate dehydrogenase (Plasmodium falciparum (isolate CDC / Honduras)) (UniProt Q27743)) of CC(C)C[C@@H](NC(=O)NC1CCC(CCN2[C@@H]3CC[C@H]2CC(OC(=O)C(CO)c2ccccc2)C3)CC1)C(O)(c1ccccc1)c1ccccc1 (stereo partly drawn)
-6

Next compound: `O=C(c1cc(C(=O)NC2CCCCC2)c(=O)n(C2CCCCC2)c1)c1cc(F)ccc1O`
-2

Then `CC(=O)Nc1cc(C(=O)Nc2cccc(-c3cccc(-c4nc5c(C)cccc5[nH]4)c3)c2)ccc1C` ?
1

Field entry: `COc1cccc(NC(=O)NC2CCN(CCCCCNC(=O)/C=C/c3ccc(Cl)c(Cl)c3)CC2)c1`
-1

Do the same for `O=C(CSc1nn(-c2ccccc2)c(=S)s1)c1c[nH]c2ccccc12` please
-1

# iterate: `Nc1cnc(C#Cc2cc3ncnc(N(CCN4CCOCC4)c4ccc(OCc5cccc(F)c5)c(Cl)c4)c3s2)cn1`
-9

Cool, now O=c1cc(NCCCNC2CCc3ccc(Cl)cc32)[nH]c2ccccc12 (stereo not drawn)
3

How about this compound: CCCC(CNCc1cccc(SC(F)(F)F)c1)CNc1cc(=O)c2ccccc2[nH]1 (stereo not drawn)
5

Would you mind doing `COc1ccccc1NC(=O)Nc1ccc(-c2ccc(-c3nc4ccc(C(F)(F)F)cc4[nH]3)cc2)cc1` as well?
3

Also, `COc1ccc(-c2nc(NC(=O)CSc3ccc([N+](=O)[O-])cc3)sc2C)cc1` please.
-1

One more compound: `Cc1cc(N[C@@H](CC(C)C)C(=O)NCCOc2ccccc2)nc(NCCc2ccc(F)cc2)n1`
1

Another: `O=C(Nc1ccc(-c2nc3ccccc3[nH]2)cc1)c1ccc([N+](=O)[O-])s1`
-6

What would you report for `COc1ccc(CNCc2ccccc2)cc1-c1ccc(S(=O)(=O)NCCN2CCCC2)c(F)c1` ?
5

// next record `Oc1c(Br)cc2oc3c(c2c1CNCc1ccccc1)CCCC3`
0

Record: `CCn1c(-c2nonc2N)nc2c(-c3cccc(NC(=O)Nc4cccc(OC)c4)c3)ncc(OCCCN)c21`
4

Try this compound next: CN(CCCCCN1CCC(NC(=O)Nc2ccc(Oc3ccccc3)cc2)C1)C(=O)/C=C/c1ccc(Cl)c(Cl)c1 (stereo not drawn)
-2

Now consider `Cc1cc(CNCCCCCCNCc2ccc(Cl)cc2)ccc1O` and answer again.
-2

Also need `CCOc1ccc(N2CCN(CCCCNC(=O)c3ccc(NC(=O)c4ccc(Cl)cc4)cc3)CC2)c(OCC)c1` , thanks.
2

Do the same for N#CC(c1cccc(Cl)c1)c1ccc2c(C(F)(F)F)cc(C(F)(F)F)nc2n1 (stereo not drawn) please
4

Same lookup for `O=C(Nc1ccc(-c2csc(-c3nc4ccccc4[nH]3)c2)cc1)Nc1ccc(F)c(F)c1F` , please.
2

And what about the compound `O=C(NC1CCN(Cc2ccccc2)CC1)c1csc2nc(-c3ccc(Cl)cc3)cn12` ?
-10

Entry O=C(/C=C/c1ccc(F)cc1)NC1CCC(CCN2CCCN(c3ccc(C(F)(F)F)cn3)CC2)CC1 (stereo not drawn) please
-1

Further, for `COc1ccccc1N1CCN(c2cccc3c2nc(-c2cncc(C#N)c2)n3CCNCc2ccccc2)CC1` ?
3

Repeat for the following compound: `CCCC(C(=O)OCCN(CC)CC)(c1ccc(Cl)cc1)c1ccc(Cl)cc1`
2

Repeat for the following compound: `O=C(CCC1CCCCC1)NCCNc1cccc2ccccc12`
-1

Quick one: `COc1ccccc1CNC(=O)c1cc(Br)cc(N2CCN(c3ccncc3)CC2)c1`
0

And the next one, `O=C(Nc1ccc(Oc2ccccc2)cc1)N(Cc1ccc(-c2cccc(CN3CCNCC3)c2)cc1)C1CCN(Cc2ccccc2)CC1` ?
-1

What do you get for `CN(C)CCNCc1cccc(-c2cccc(-c3nc4ccccc4[nH]3)c2)c1` ?
-3
